These entries and their values trace back to the supplement of paper PMC6757056.

Below, each entry is listed with its recorded normalized RNA/DNA level without ligand (log10).
B1: library; a variant is named by its letters at N, in order (parent)
chain: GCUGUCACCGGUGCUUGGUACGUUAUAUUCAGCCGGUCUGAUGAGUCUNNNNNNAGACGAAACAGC

- Variants of: B1
- assay overview: normalized RNA/DNA level without ligand (relative to sTRSVctl = 100) (log10 (% of sTRSVctl)); HEK293T overexpressing SLC46A1; higher = less ribozyme self-cleavage, higher mRNA level
- study conditions: without (6R,S)-folinic acid; ligand present: no
Reply briefly: the number, and no unit.

Example variants with recorded normalized RNA/DNA level without ligand (log10):
> print(dat)
   mutant  recorded.number
1  CUCUCG             2.05
2  CUGCGC             2.06
3  GGUUGC             1.93
4  UCUAUG             1.83
5  AGUCUU             2.02

Could you share which normalized RNA/DNA level without ligand (log10) value was measured for UCUCAA ?
1.96

Which normalized RNA/DNA level without ligand (log10) reading was recorded for the variant AGGAUU ?
2.02

I'd like to know its normalized RNA/DNA level without ligand (log10). The variant in question is CAGUGC
2.01

Item under review: UGUUGG . Reported normalized RNA/DNA level without ligand (log10)?
1.53

# query: normalized RNA/DNA level without ligand (log10) of entry ACUGCU
2

Recorded normalized RNA/DNA level without ligand (log10) of UCGGAU , please.
1.95

Give its normalized RNA/DNA level without ligand (log10) value. Item: GCUGAA
2.02
